Target System: Prostaglandin G/H synthase 1 (Ovis aries)
Sequence (P05979 whole entry): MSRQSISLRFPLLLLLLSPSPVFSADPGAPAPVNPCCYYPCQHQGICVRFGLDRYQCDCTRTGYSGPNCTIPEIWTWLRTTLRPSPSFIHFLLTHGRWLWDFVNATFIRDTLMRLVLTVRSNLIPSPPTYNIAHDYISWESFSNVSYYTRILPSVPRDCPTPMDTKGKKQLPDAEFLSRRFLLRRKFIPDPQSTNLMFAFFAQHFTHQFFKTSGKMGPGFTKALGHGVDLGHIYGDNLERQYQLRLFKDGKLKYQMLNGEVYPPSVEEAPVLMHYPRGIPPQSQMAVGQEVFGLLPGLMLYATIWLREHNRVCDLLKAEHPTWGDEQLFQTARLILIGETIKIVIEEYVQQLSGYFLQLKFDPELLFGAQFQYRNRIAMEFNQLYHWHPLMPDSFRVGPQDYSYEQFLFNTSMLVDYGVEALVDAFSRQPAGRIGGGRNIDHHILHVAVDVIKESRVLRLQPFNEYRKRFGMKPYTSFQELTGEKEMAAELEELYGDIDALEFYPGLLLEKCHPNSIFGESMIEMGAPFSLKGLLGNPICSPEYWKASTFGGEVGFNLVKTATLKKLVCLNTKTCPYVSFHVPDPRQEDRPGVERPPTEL
Metric: IC50 (µM)

CS(=O)(=O)Nc1ccc([N+](=O)[O-])cc1Oc1ccccc1 [NIMESULIDE] ... 6.2
COC1(c2cccc(CS(=O)(=O)Nc3ccccc3OCc3ccccc3)c2)CCOCC1 ... 14.8

a = CCOC(=O)c1ccc(OCc2cccc(C3(OC)CCOCC3)c2)c(OCc2ccccc2)c1
b = COC1(c2cccc(CN(c3ccc([N+](=O)[O-])cc3OCc3ccccc3)S(C)(=O)=O)c2)CCOCC1
Q) Endpoint returns whichever of a and b has the numerically higher IC50. Lab note: record the label of whichever item you select.
A) a
